MIC80 values, listed per item
# Test system: Cryptococcus neoformans
# protocol notes: Antifungal activity against Cryptococcus neoformans CGMCC 2.3161 assessed as inhibition of visible growth
# Format: functional
Give the value in µg/mL but do not write µg/mL after it.

molecule: CN(Cc1ccc(-c2ccc(Cl)cc2)cc1F)CC(O)(Cn1cncn1)c1ccc(F)cc1F (stereo unspecified)
measurement unit: µg/mL
MIC80: 0.012
//
molecule: CN(Cc1nc(-c2ccc(OC(F)(F)F)cc2)cs1)CC(O)(Cn1cncn1)c1ccc(F)cc1F (stereo unspecified)
measurement unit: µg/mL
MIC80: 0.1
//
molecule: O[C@@](Cn1cnnn1)(c1ccc(F)cc1F)C(F)(F)c1ccc(-c2ccc(OCC(F)(F)F)cc2)cn1 [OTESECONAZOLE]
measurement unit: µg/mL
MIC80: 0.012
//
molecule: [2H]C([2H])([2H])N(Cc1ccc(-c2ccc(OC(F)(F)F)cc2)cc1)[C@H](C)[C@](O)(Cn1cncn1)c1ccc(F)cc1F
measurement unit: µg/mL
MIC80: 0.012
//
molecule: [2H]C([2H])([2H])N(Cc1ccc(-c2ccc(OC(F)(F)F)cc2)nc1)[C@H](C)[C@](O)(Cn1cncn1)c1ccc(F)cc1F
measurement unit: µg/mL
MIC80: 0.012

Notebook: [2H]C([2H])([2H])N(Cc1ccc(-c2ccc(Cl)cc2)cc1)[C@H](C)[C@](O)(Cn1cncn1)c1ccc(F)cc1F , MIC80 read as 0.006

Notebook: [2H]C([2H])([2H])N(Cc1ccc(-c2ccc(Cl)cc2)nc1)[C@H](C)[C@](O)(Cn1cncn1)c1ccc(F)cc1F , MIC80 read as 0.006

Notebook: CN(Cc1cnc(-c2ccc(Cl)cc2)s1)CC(O)(Cn1cncn1)c1ccc(F)cc1F (stereo unspecified) , MIC80 read as 1.6
